Target: glucokinase (GK), residues 12-465 of the human enzyme (Homo sapiens, UniProt P35557)
Construct: I.D. No. 1 corresponds to residues 12-465 of glucokinase
Sequence (P35557 with tags, fused parts or gaps isoform P35557-2): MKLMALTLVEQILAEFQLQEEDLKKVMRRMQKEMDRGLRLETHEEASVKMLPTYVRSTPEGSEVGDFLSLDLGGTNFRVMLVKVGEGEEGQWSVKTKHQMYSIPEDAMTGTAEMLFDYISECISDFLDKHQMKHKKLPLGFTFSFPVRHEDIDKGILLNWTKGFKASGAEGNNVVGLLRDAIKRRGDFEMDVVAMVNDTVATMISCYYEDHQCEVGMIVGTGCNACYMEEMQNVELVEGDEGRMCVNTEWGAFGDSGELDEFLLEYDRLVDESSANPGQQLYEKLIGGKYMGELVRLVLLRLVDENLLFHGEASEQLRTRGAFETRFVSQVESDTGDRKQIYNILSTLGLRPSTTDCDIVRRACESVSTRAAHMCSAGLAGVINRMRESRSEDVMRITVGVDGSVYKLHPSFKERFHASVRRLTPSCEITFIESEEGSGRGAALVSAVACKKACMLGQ
Experiment: Enzymatic glucokinase activity assay (KinaseGlo luminescence, ATP consumption)
Settings: GK activation; 5 μM ATP, 5 mM Glucose; Kact = concentration giving 50% of the maximal increase in GK activity; read-out: pKact
pEC50: −log10 of the molar value.
Consider the following molecules and their measured pEC50 readings.

Reference set, count: 5
1. O=C(Nc1nccs1)[C@H](CC1CCCCC1)N1CCN(S(=O)(=O)c2ccc(F)c(Cl)c2)CC1=O = 5.60 to 5.80
2. CCOC(=O)c1nc(-c2ccc(S(=O)(=O)N3CCN([C@@H](CC4CCCCC4)C(=O)Nc4nccs4)C(=O)C3)s2)no1 = 5.60 to 5.80
3. O=C(Nc1nccs1)[C@H](CC1CCCCC1)N1CCN(S(=O)(=O)Cc2ccc(Cl)c(Cl)c2)CC1=O = 5.60 to 5.80
4. O=C(Nc1nccs1)[C@H](CC1CCCCC1)N1CCN(S(=O)(=O)c2ccc(F)cc2F)CC1=O = 5.90 to 6.10
5. O=C(Nc1nccs1)[C@H](CC1CCCCC1)N1CCN(S(=O)(=O)c2ccc(Br)cc2)CC1=O = 5.60 to 5.80

stdin: What pEC50 appears in the records for this molecule with glucokinase (GK), residues 12-465 of the human enzyme (Homo sapiens, UniProt P35557)? COC(=O)c1ccc(S(=O)(=O)N2CCN([C@@H](CC3CCCCC3)C(=O)Nc3nccs3)C(=O)C2)o1
stdout: ≤ 5.50

stdin: Please do the same for O=C(Nc1nccs1)[C@H](CC1CCCCC1)N1CCN(S(=O)(=O)c2cccc3nonc23)CC1=O as well.
stdout: ≥ 6.20

stdin: Please do the same for O=C(Nc1nccs1)[C@H](CC1CCCCC1)N1CCN(S(=O)(=O)C2CC2)CC1=O [Example 96] as well.
stdout: 5.90 to 6.10

stdin: Please do the same for O=C(Nc1nccs1)[C@H](CC1CCCCC1)N1CCN(S(=O)(=O)Cc2cccc(Cl)c2)CC1=O as well.
stdout: 5.60 to 5.80

stdin: Please do the same for O=C(Nc1nccs1)[C@H](CC1CCCCC1)N1CCN(C(=O)Nc2cccc(C(F)(F)F)c2)CC1=O as well.
stdout: ≤ 5.50

stdin: Please do the same for O=C(O)c1cccc(S(=O)(=O)N2CCN([C@@H](CC3CCCCC3)C(=O)Nc3nccs3)C(=O)C2)c1 as well.
stdout: ≤ 5.50

stdin: Please do the same for O=C(Nc1ncc(Cl)s1)C(CC1CCOCC1)N1CCN(S(=O)(=O)C2CC2)CC1=O (stereo not drawn) as well.
stdout: 5.60 to 5.80

stdin: Please do the same for O=C(Nc1nccs1)[C@H](CC1CCCCC1)N1CCN(C(=S)NCc2cccs2)CC1=O as well.
stdout: 5.60 to 5.80

stdin: Please do the same for O=C(Nc1ncc(Cl)s1)[C@H](CC1CCOCC1)N1CCN(S(=O)(=O)c2ccc(F)cc2)CC1=O as well.
stdout: 5.60 to 5.80

stdin: Please do the same for COc1ccc(NC(=S)N2CCN([C@@H](CC3CCCCC3)C(=O)Nc3nccs3)C(=O)C2)cc1 as well.
stdout: ≤ 5.50

Entry source: patent US8173645B2
